Numbers sourced from the NIST ThermoML archive (doi:10.1016/j.jct.2019.07.013).

Answer each item with its documented mass density.
Conditions: 283.15 K; 100 kPa; Liquid; Vibrating tube method
One number for each entry, in kg/m3.

compound: C=CCCn1cc[n+](C)c1.[Br-] [1-(3-butenyl)-3-methylimidazolium bromide]
mass density (kg/m3): 1354.24

Below are 4 compounds. Give each one its mass density.
1. O [water]
2. CCCCCC[n+]1ccn(C)c1.O=S(=O)([N-]S(=O)(=O)C(F)(F)F)C(F)(F)F
3. C=CCCn1cc[n+](CCCC)c1.[Br-] [1-(3-butenyl)-3-butylimidazolium bromide]
4. C=CCCn1cc[n+](CC)c1.[Br-] [1-(3-butenyl)-3-ethylimidazolium bromide]

[999.7, 1386, 1229.25, 1305.11]

---

Answer each item with its documented mass density.
Conditions: 288.15 K; 100 kPa; Liquid; Vibrating tube method
Numbers only, in kg/m3.

compound: C=CCCn1cc[n+](C)c1.[Br-] [1-(3-butenyl)-3-methylimidazolium bromide]
unit: kg/m3
mass density: 1350.42

compound: CCCCCC[n+]1ccn(C)c1.O=S(=O)([N-]S(=O)(=O)C(F)(F)F)C(F)(F)F
unit: kg/m3
mass density: 1381.41

compound: C=CCCn1cc[n+](CCCC)c1.[Br-] [1-(3-butenyl)-3-butylimidazolium bromide]
unit: kg/m3
mass density: 1225.9

compound: O [water]
unit: kg/m3
mass density: 999.05

Consider the compound C=CCCn1cc[n+](CC)c1.[Br-] [1-(3-butenyl)-3-ethylimidazolium bromide] and give its measured mass density. 1301.34
